Read-out: Phosphatase and tensin (PTEN), PTEN (gene 5728)
Experiment: LTEA_HepaRG_PTEN: Life Technologies and Expression Analysis (LTEA) Assay for Phosphatase and tensin (PTEN) using HepaRG (AID 2283523)
Conditions: mRNA level, 48 h; actives raise or lower the signal
Calls of active or inactive are those of the source. Rule for the calls: active = hit-call score of the fitted dose curve at least 0.9, where 1 is the maximum; inactive = score below 0.9.
Tick one outcome: active, inactive

Field: example entries. Status: answers known.
COMPOUND | ASSIGNED LABEL
CCCCOC(=O)C(C)Oc1ccc(Oc2ccc(C(F)(F)F)cn2)cc1 (stereo not given) | inactive
CCOC(=O)NCCOc1ccc(Oc2ccccc2)cc1 | inactive
CCN(CC)C(=O)c1cccc(C)c1 | inactive
Oc1ccc(C(c2ccc(O)cc2)C(Cl)(Cl)Cl)cc1 | active
CCCCCCC(C)OC(=O)COc1nc(F)c(Cl)c(N)c1Cl (stereo not given) | inactive
CC1(C)C(C=C(Cl)Cl)C1C(=O)OCc1cccc(Oc2ccccc2)c1 (stereo not given) | inactive
O=C(c1ccc(O)cc1O)c1ccc(O)cc1O | inactive
CN(C)C(=O)Nc1ccc(Cl)c(Cl)c1 | inactive
CCNc1nc(N)nc(Cl)n1 | inactive
C[C@]12CC[C@@H]3c4ccc(O)cc4C[C@@H](CCCCCCCCCS(=O)CCCC(F)(F)C(F)(F)F)[C@H]3[C@@H]1CC[C@@H]2O (stereo not given in full) | inactive

**Q:** What was the test verdict on "CCOC(=O)c1ccc(O)cc1" ?
**A:** inactive

**Q:** What was the test verdict on "C[C@]12C[C@H](O)[C@H]3[C@@H](CCC4=CC(=O)CC[C@@]43C)[C@@H]1CC[C@@H]2C(=O)CO" ?
**A:** inactive

**Q:** What was the test verdict on "N#CSCSc1nc2ccccc2s1" ?
**A:** inactive

###

Experiment: Tanguay_ZF_120hpf_SNOU_legacy: (Legacy) Oregon State University Tanguay Lab 120 Hour Post-fertilization zebrafish Assay for Snout Malformation (AID 2283637)
Results filed as inconclusive are left out. Calls of active or inactive are those of the source. How the source made its calls: active means hit-call score of the fitted dose curve at least 0.9, where 1 is the maximum; inconclusive means response in the unintended direction; inactive means score below 0.9.
Tick one outcome: Y (active), N (inactive)

Field: example entries. Status: answers known.
COMPOUND | ASSIGNED LABEL
COC(=O)c1ccccc1C(=O)O | N
O=C(O)C1(C(=O)Nc2ccc(Cl)cc2Cl)CC1 | N
c1ccc2[nH]c(-c3cscn3)nc2c1 | N
CCC(C)OC(=O)N1CCCCC1CCO (configuration not stated) | N
CC1(C)C(C=C(Cl)Cl)C1C(=O)OCc1cccc(Oc2ccccc2)c1 (configuration not stated) | N
CCSC(=O)N(CC(C)C)CC(C)C | N

Below: the item to evaluate.
**Q:** What was the test verdict on CCCCOC(=O)C(C)Oc1ccc(Oc2ccc(C(F)(F)F)cn2)cc1 (configuration not stated) ?
**A:** N

###

Experiment: Tanguay_ZF_120hpf_PE_legacy: (Legacy) Oregon State University Tanguay Lab 120 Hour Post-fertilization zebrafish Assay for Pericardial Edema (AID 2283640);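 for AC50: potency for increased incidence of pericardial edema versus DMSO baseline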
Records with an inconclusive call do not appear. Calls of active or inactive are those of the source. The calls were made as follows: active = hit-call score of the fitted dose curve at least 0.9, where 1 is the maximum; inconclusive = response in the unintended direction; inactive = score below 0.9.
MEASURED METRIC: AC50

In the examples that follow, each entry is paired with its recorded AC50.
COMPOUND | MEASURED METRIC | RECORDED VALUE
CCOC(=O)C(C)Oc1ccc(Oc2cnc3cc(Cl)ccc3n2)cc1 (stereo not given) | AC50 | inactive
N[C@@H](Cc1cc(I)c(Oc2ccc(O)c(I)c2)c(I)c1)C(=O)O | AC50 | inactive
O=C(O)c1ccccc1 | AC50 | inactive
CCCCOCCOCCOCc1cc2c(cc1CCC)OCO2 | AC50 | 26.2 µM (active)

**Q:** Bench note: what AC50 did "CCCOC(=O)NCCCN(C)C" show?
**A:** inactive
